// data source = patent US5385947A

target: specific binding sites of dizocilpine ([3H]-MK801) in the rat cortex; assay: 3H-MK801 (dizocilpine) binding test: inhibition of the binding of dizocilpine to the specific binding sites in rat cortex; details: 50 percent inhibition of specific binding of dizocilpine
pIC50: −log10 of the molar value. Counter-ions that a name gives are not always drawn.
Property Measured: pIC50

> print(dat)
                                   compound  experimental.value
1  Cl.NCC[C@@]12CCCC[C@]1(O)CCc1ccccc12 (racemic) [hydrochloride]                7.03
2  Cl.NCC[C@@]12CCCC[C@]1(O)CCc1ccc(Cl)cc12 (racemic) [hydrochloride]                7.07
3  Cl.NCC[C@@]12CCCC[C@]1(O)CCc1c(F)cc(Cl)cc12 (racemic) [hydrochloride]                6.97
4  CN(C)CC[C@@]12CCCC[C@]1(O)CCc1ccccc12 (racemic) [hydrochloride]                6.34
5  Cl.NCC[C@@]12CCCC[C@]1(O)CCc1ccc(O)cc12 (racemic) [hydrochloride]                7.13
6  CN(C)CC[C@@]12CCCC[C@]1(O)CCc1ccc(Cl)cc12.Cl (single isomer, unassigned) [hydrochloride]                6.60

====

Some molecules, each annotated with its measured Toxicity LLD (lowest lethal dosage).
test system: mouse; test: Toxicity (lowest lethal dosage, LLD) in the mouse, p.o.; format: in vivo
Property Measured: Toxicity LLD (lowest lethal dosage) (mg/kg)

> print(dat)
                                   molecule  target.under.test  display.unit  experimental.value
1  CN(C)CC[C@@]12CCCC[C@]1(O)CCc1ccc(Cl)cc12.Cl (single isomer, unassigned)              mouse         mg/kg                 375
2  Cl.NCC[C@@]12CCCC[C@]1(O)CCc1ccc(Cl)cc12 (racemic)              mouse         mg/kg                 500
3  Cl.NCC[C@@]12CCCC[C@]1(O)CCc1c(F)cc(Cl)cc12 (racemic)              mouse         mg/kg                1000
4  Cl.NCC[C@@]12CCCC[C@]1(O)CCc1ccc(O)cc12 (racemic)              mouse         mg/kg                1000
5  Cl.NCC[C@@]12CCCC[C@]1(O)CCc1ccccc12 (racemic)              mouse         mg/kg                 250
